Below: a set of entries, each annotated with reported IC50.
# target_desc: 20S proteasome β5 chymotrypsin-like activity (Suc-LLVY-AMC) (Homo sapiens, UniProt P20618+P28074)
# Construct: Proteasomes were isolated from red blood cells
# assay_summary: Protease assay, chymotrypsin-like activity of isolated 20S proteasomes (LLVY substrate)
# condition_details: isolated 20S proteasome; LLVY-MCA 50 μM; 15 min pre-incubation; read-out: IC50 β5 Chymotrypsin-like (Y)
Where a SMILES comes first, the peptide text is derived from it. The star is where a group is joined. Cbz = O=C(OCc1ccccc1)*; CH2Cl = ClC*
endpoint_label: IC50 (nM)

CC(C)C[C@H](NC(=O)OCc1ccccc1)C(=O)N[C@@H](CC(C)C)C(=O)N[C@@H](CC(C)C)C(=O)C(=O)NCc1ccccc1 : 441
CC(C)C[C@H](NC(=O)OCc1ccccc1)C(=O)N[C@@H](CC(C)C)C(=O)N[C@@H](CC(C)C)C(O)C(=O)Nc1ccccc1 (stereo partly drawn) : 981
CC(C)CC(NC(=O)C(CC(C)C)NC(=O)C(CC(C)C)NC(=O)OCc1ccccc1)C(=O)CCl (stereo not drawn) [Compound 22] (Cbz-Leu-Leu-Leu-CH2Cl; configuration not given here) : 2200
